biological target: Adenosine receptor A2b (Homo sapiens)
Sequence (P29275 whole entry): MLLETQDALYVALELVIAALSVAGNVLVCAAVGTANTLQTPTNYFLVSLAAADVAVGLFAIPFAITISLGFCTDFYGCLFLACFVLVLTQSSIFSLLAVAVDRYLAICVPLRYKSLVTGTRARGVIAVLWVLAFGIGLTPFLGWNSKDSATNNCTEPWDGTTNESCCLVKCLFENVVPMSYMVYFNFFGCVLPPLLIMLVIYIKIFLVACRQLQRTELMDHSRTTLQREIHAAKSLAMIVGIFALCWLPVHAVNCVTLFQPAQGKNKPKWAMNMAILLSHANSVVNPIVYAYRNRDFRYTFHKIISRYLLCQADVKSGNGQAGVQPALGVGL
Sorting guide: entries reporting Ki beneath 200 nM go in the label 1 pile, the rest go in the label 0 pile.

N#Cc1c(-c2cccs2)cc(-c2ccco2)nc1N :: label 1
Cc1ccc(-c2cc(-c3ccco3)nc(N)c2C#N)o1 :: label 0
N#Cc1c(-c2ccco2)cc(-c2cccs2)nc1N :: label 0

**Q:** Please indicate whether the reported Ki of `N#Cc1c(-c2ccco2)cc(-c2ccccc2)nc1N` is strictly below 200 nM.
**A:** label 0

**Q:** Please indicate whether the reported Ki of `N#Cc1c(-c2ccco2)cc(-c2ccco2)nc1N` is strictly below 200 nM.
**A:** label 1

**Q:** Please indicate whether the reported Ki of `N#Cc1c(-c2ccccc2)cc(-c2ccco2)nc1N` is strictly below 200 nM.
**A:** label 1
